Value source: patent US20230414582A1

- method.notes: Oral pharmacokinetics of Compound 1 in humans (FIG. 7)
- Type: in vivo, human
- stated.conditions: human, plasma, oral administration
observed.property: half-life

Asked: Note half-life for the compound shown: Cc1cc(-c2nc(C(=O)Nc3cc4oc(N5CCOCC5)nc4nc3N3CC[C@@H](O)C3)co2)ccn1
Given back: ~6 h
